Recorded values, source patent US20230392180A1.

test system: primary mouse hepatocytes; assay: MIEL-Rejuvenation in primary old hepatocytes; assay type: cell-based, mice; details: figure legends FIG. 63-65
MEASURED_QUANTITY: outcome in high throughput screening using primary mouse hepatocytes (miBioAge)

INSERT INTO assay_data (molecule, study_system, recorded_value) VALUES
  ('CC(Cc1ccc(O)c(O)c1)C(C)Cc1ccc(O)c(O)c1 (stereo not drawn)', 'primary mouse hepatocytes', 'positive controls'),
  ('NC(=O)c1ccc[n+]([C@@H]2O[C@H](CO)[C@@H](O)[C@H]2O)c1 [nicotinamide riboside]', 'primary mouse hepatocytes', 'inactive molecules'),
  ('C[C@]12CC[C@@H]3c4ccc(O)cc4CC[C@H]3[C@@H]1CC[C@@H]2O', 'primary mouse hepatocytes', 'positive controls'),
  ('O=C(O)C(Cc1c[nH]c2ccccc12)N1C(=O)c2ccccc2C1=O (stereo not drawn)', 'primary mouse hepatocytes', 'inactive molecules'),
  ('CN(C)C(=N)N=C(N)N', 'primary mouse hepatocytes', 'positive controls'),
  ('NC(=O)c1ccc[n+]([C@@H]2O[C@H](COP(=O)([O-])O)[C@@H](O)[C@H]2O)c1 [Nicotiamide mononucleotide, Nicotinamide mononucleotide]', 'primary mouse hepatocytes', 'inactive molecules');
